test system: NCI-H460; experiment: NCI tumour cell line growth inhibition, 48 h
Calls of active or inactive are those of the source. Cut-off read from the data, not from the text of the source: active = GI50 up to about 1.1 µM and inactive = higher.
quantityKind: GI50

[
  {
    "compound": "COc1ccc2nc(NC(=O)/C(C#N)=C/c3ccccc3)sc2c1",
    "assayResult": "38 µM (inactive)"
  },
  {
    "compound": "COc1ccc(-c2c3c(nc4nc(SC)nc(SC)c24)CCCC3)cc1OC",
    "assayResult": "29.2 µM (inactive)"
  },
  {
    "compound": "O=c1[nH]c(=O)c2c3n(cc2[nH]1)CCCCC3",
    "assayResult": "> 100 µM (inactive)"
  },
  {
    "compound": "Cc1c(CNc2ccc(Cl)c(Cl)c2Cl)cnc2nc(N)nc(N)c12",
    "assayResult": "0.0615 µM (active)"
  },
  {
    "compound": "c1ccc2c(c1)-c1ccccc1C2NC1=NCCO1",
    "assayResult": "14 µM (inactive)"
  },
  {
    "compound": "O=C1CN(c2cccc(Cl)c2)C(=O)CN1CCN1CC(=O)N(c2cccc(Cl)c2)CC1=O",
    "assayResult": "> 100 µM (inactive)"
  },
  {
    "compound": "O=C1CSC(C(/N=N/c2ccc(Cl)cc2)c2nc3ccccc3[nH]2)=N1 (configuration not stated)",
    "assayResult": "33 µM (inactive)"
  },
  {
    "compound": "CSc1c(C#N)c(S)[nH]c(=O)c1C#N",
    "assayResult": "97.7 µM (inactive)"
  },
  {
    "compound": "Cc1ccc(Nc2nc(=O)c3c([nH]c4ccccc43)s2)cc1",
    "assayResult": "10.1 µM (inactive)"
  },
  {
    "compound": "O=C(Oc1ccccc1)N1c2ccccc2[C@@]23O[C@]24CCC[C@H]3C#C/C=C\\C#C[C@H]14",
    "assayResult": "< 0.01 µM (active)"
  },
  {
    "compound": "CCCCCCCCCCCCC/C=C(/COCC[N+](C)(C)C)OC(C)=O.CCCCCCCCCCCCCC/C(=C/OCC[N+](C)(C)C)OC(C)=O",
    "assayResult": "0.63 µM (active)"
  },
  {
    "compound": "O=NN1C(c2ccccc2)CNC(=O)CC1c1ccccc1 (configuration not stated)",
    "assayResult": "36.2 µM (inactive)"
  },
  {
    "compound": "CC1(C)CCC[C@@]2(C)C1C[C@H](O)[C@@]1(C)O[C@@](C)([C@H](O)CO)CCC21 (some centres not stated)",
    "assayResult": "40.9 µM (inactive)"
  },
  {
    "compound": "OC[C@@H](O)[C@H]1NC[C@@H](O)[C@H]1O",
    "assayResult": "> 100 µM (inactive)"
  },
  {
    "compound": "ClC(Cl)=C1C(=C(Cl)Cl)C(Cl)(Cl)C1(Cl)Cl",
    "assayResult": "3.93 µM (inactive)"
  },
  {
    "compound": "Cc1c(/N=N/c2ccccc2)c(-c2ccccc2)n(C2OC(CO)C(O)C(O)C2O)c(=S)c1C#N (configuration not stated)",
    "assayResult": "10.6 µM (inactive)"
  },
  {
    "compound": "Cc1nc(O)c2c3c(sc2n1)CCCC3",
    "assayResult": "0.284 µM (active)"
  },
  {
    "compound": "CCOc1ccc2c(ccc(/C=C/c3cc(C)c4cccnc4c3O)[n+]2C)c1",
    "assayResult": "0.281 µM (active)"
  },
  {
    "compound": "CCOC(=O)C[C@@]12CCCN[C@]1(C)CCc1ccccc12",
    "assayResult": "> 100 µM (inactive)"
  },
  {
    "compound": "CCCC1(N)CC(OC)OC(C)C1O (configuration not stated)",
    "assayResult": "> 100 µM (inactive)"
  },
  {
    "compound": "COC1C(=[N+]=[N-])C(=O)NC(=O)N1C1OC(COC(c2ccccc2)(c2ccccc2)c2ccccc2)C(O)C1O (configuration not stated)",
    "assayResult": "25.4 µM (inactive)"
  },
  {
    "compound": "CC12O[C@]3([C@H](C(=O)N4CCOC43C)[C@H]1Cl)[C@H]1O[C@H]12 (some centres not stated)",
    "assayResult": "> 100 µM (inactive)"
  }
]
